Each entry below carries its recorded pIC50.
Test system: human erythroleukaemia K562
assay text: In vitro cytotoxic activity, Calcein AM assay, K-562
Type: cell-based
stated conditions: 72 hours, read-out: IC 50 K-562
Note on pIC50: it is the negative log10 of concentration, concentration in mol/L.

Nc1nc(NCc2cccc(F)c2)c2ncn([C@@H]3O[C@H](CO)[C@@H](O)[C@H]3O)c2n1 [R2 = NH2,3-fluorobenzylamino] = 4.92

Prompt: Param item = OC[C@H]1O[C@@H](n2cnc3c(NCc4ccc(Cl)cc4)ncnc32)[C@H](O)[C@@H]1O [4-chlorobenzylamino, 6-(4-chlorobenzylamino)purine riboside] ; retrieve measured pIC50.
Completion: 4.79

Prompt: Param item = OC[C@H]1O[C@@H](n2cnc3c(NCc4ccccc4Br)ncnc32)[C@H](O)[C@@H]1O [2-bromobenzylamino, 6-(2-bromobenzylamino)purine riboside] ; retrieve measured pIC50.
Completion: 5.00

----------
Test system: tobacco callus Nicotiana tabacum L. cv. Wisconsin 38
assay text: Growth of cytokinin-dependent tobacco callus
Assay type: cell-based
stated conditions: fresh callus weight after four weeks
experimental endpoint: Concentration with highest activity

OC[C@H]1O[C@@H](n2cnc3c(NCc4cc(F)c(F)cc4F)ncnc32)[C@H](O)[C@@H]1O [2,4,5-trifluorobenzylamino] = 10^−5 mol · l^−1
Cc1ccc(CNc2ncnc3c2ncn3[C@@H]2O[C@H](CO)[C@@H](O)[C@H]2O)cc1 [4-methylbenzylamino, 6-(4-methylbenzylamino)purine riboside] = 10^−6 mol · l^−1
OC[C@H]1O[C@@H](n2cnc3c(NCc4cc(F)cc(F)c4)ncnc32)[C@H](O)[C@@H]1O [3,5-difluorobenzylamino] = 10^−6 mol · l^−1
COc1ccccc1CNc1ncnc2c1ncn2[C@@H]1O[C@H](CO)[C@@H](O)[C@H]1O [2-methoxybenzylamino, 6-(2-methoxybenzylamino)purine riboside] = 10^−5 mol · l^−1
OC[C@H]1O[C@@H](n2cnc3c(NCc4ccc(F)cc4Cl)ncnc32)[C@H](O)[C@@H]1O [2-chloro-4-fluorobenzylamino] = 10^−5 mol · l^−1

Prompt: Param item = OC[C@H]1O[C@@H](n2cnc3c(NCc4ccccc4Br)ncnc32)[C@H](O)[C@@H]1O [2-bromobenzylamino, 6-(2-bromobenzylamino)purine riboside] ; retrieve measured Concentration with highest activity.
Completion: 10^−5 mol · l^−1

----------
Test system: tobacco callus Nicotiana tabacum L. cv. Wisconsin 38
assay text: Growth of cytokinin-dependent tobacco callus
Assay type: cell-based
stated conditions: fresh callus weight after four weeks
Each entry below carries its recorded Concentration with highest activity.

OC[C@H]1O[C@@H](n2cnc3c(NCc4c(F)ccc(F)c4F)ncnc32)[C@H](O)[C@@H]1O [2,3,6-trifluorobenzylamino] = 10^−5 mol · l^−1
OC[C@H]1O[C@@H](n2cnc3c(NCc4ccccc4Cl)ncnc32)[C@H](O)[C@@H]1O [2-chlorobenzylamino, 6-(2-chlorobenzylamino)purine riboside] = 10^−6 mol · l^−1
Cc1cccc(CNc2ncnc3c2ncn3[C@@H]2O[C@H](CO)[C@@H](O)[C@H]2O)c1 [3-methylbenzylamino, 6-(3-methylbenzylamino)purine riboside] = 10^−6 mol · l^−1
OC[C@H]1O[C@@H](n2cnc3c(NCc4cccc(Cl)c4)ncnc32)[C@H](O)[C@@H]1O [3-chlorobenzylamino, 6-(3-chlorobenzylamino)purine riboside] = 10^−5 mol · l^−1

Please find the next compound below.
Prompt: Param item = COc1ccc(CNc2ncnc3c2ncn3[C@@H]2O[C@H](CO)[C@@H](O)[C@H]2O)cc1 [4-methoxybenzylamino, 6-(4-methoxybenzylamino)purine riboside] ; retrieve measured Concentration with highest activity.
Completion: 10^−6 mol · l^−1

----------
Test system: human erythroleukaemia K562
assay text: In vitro cytotoxic activity, Calcein AM assay, K-562
Assay type: cell-based
stated conditions: 72 hours, read-out: IC 50 K-562
Excerpt: One of the parameters used, as the basis for cytotoxicity assays, is the metabolic activity of viable cells. For example, a microtiter assay, which uses the Calcein AM, is now widely used to quantitate cell proliferation and cytotoxicity. For instance, this assay is used in drug screening programs and in chemosensitivity testing. […] The quantity of reduced Calcein AM corresponds to the number of vital cells in the culture. […]
pIC50: −log10 of the molar value.
experimental endpoint: pIC50

Illustrative cases are given below, each with its answer.
COc1ccccc1CNc1ncnc2c1ncn2[C@@H]1O[C@H](CO)[C@@H](O)[C@H]1O [2-methoxybenzylamino, 6-(2-methoxybenzylamino)purine riboside] = 4.95
COc1ccc(CNc2ncnc3c2ncn3[C@@H]2O[C@H](CO)[C@@H](O)[C@H]2O)cc1O [3-hydroxy-4-methoxybenzylamino] = < 3.78

Please find the next compound below.
Prompt: Param item = COc1ccc(CNc2ncnc3c2ncn3[C@@H]2O[C@H](CO)[C@@H](O)[C@H]2O)cc1 [4-methoxybenzylamino, 6-(4-methoxybenzylamino)purine riboside] ; retrieve measured pIC50.
Completion: < 3.78

----------
Tested on: Human lymphocytes
assay text: Immunosuppressive activity: concanavalin A induced lymphocyte proliferation, [^3H]-TdR incorporation
Format: cell-based
stated conditions: 72 hours, read-out: Human lymphocytes ED50
Binarize EC50 at 6 µM; below is class 1, at or above is class 0.

These recorded examples may help you get a feel for the data.
OC[C@H]1O[C@@H](n2cnc3c(NCc4cccc(Cl)c4)ncnc32)[C@H](O)[C@@H]1O [3-chlorobenzylamino, 6-(3-chlorobenzylamino)purine riboside] = class 1
OC[C@H]1O[C@@H](n2cnc3c(NCc4ccc(F)cc4)ncnc32)[C@H](O)[C@@H]1O [4-fluorobenzylamino, 6-(4-fluorobenzylamino)purine riboside] = class 0
Cc1cccc(CNc2ncnc3c2ncn3[C@@H]2O[C@H](CO)[C@@H](O)[C@H]2O)c1 [3-methylbenzylamino, 6-(3-methylbenzylamino)purine riboside] = class 0

Prompt: Please state whether EC50 is below 6 µM for OC[C@H]1O[C@@H](n2cnc3c(NCc4ccccc4F)ncnc32)[C@H](O)[C@@H]1O [2-fluorobenzylamino, 6-(2-fluorobenzylamino)purine riboside]
Completion: class 1

Prompt: Please state whether EC50 is below 6 µM for OC[C@H]1O[C@@H](n2cnc3c(NCc4ccc(Cl)cc4)ncnc32)[C@H](O)[C@@H]1O [4-chlorobenzylamino, 6-(4-chlorobenzylamino)purine riboside]
Completion: class 1

----------
Test system: human malignant melanoma cells G361
assay text: In vitro cytotoxic activity, Calcein AM assay, G-361
Format: cell-based
stated conditions: Homo sapiens, G-361, 72 hours, read-out: IC 50 G-361
experimental endpoint: IC50

Prompt: Param item = `Nc1ncnc2c1ncn2[C@@H]1O[C@H](CO)[C@@H](O)[C@H]1O` ; retrieve measured IC50.
Completion: > 167 µM

----------
Test system: glutamate kinase
assay text: Field studies: glutamate kinase activity in spring wheat
Type: in vivo
Design: tested at 1 µM (10^-6 M spray solution)
stated conditions: 6 days after the application, Control = 100.0
experimental endpoint: GK % (glutamate kinase activity)
// return the numeric value with its unit appended

c1ccc(CNc2ncnc3nc[nH]c23)cc1 [BAP, 6-benzylaminopurine, reference compound] = 108.2%
OC[C@H]1O[C@@H](n2cnc3c(NCc4cccc(Br)c4)ncnc32)[C@H](O)[C@@H]1O [3-bromobenzylamino, 6-(3-bromobenzylamino)purine riboside] = 116.6%
OC[C@H]1O[C@@H](n2cnc3c(NCc4ccccc4)ncnc32)[C@H](O)[C@@H]1O [BAPR, 6-benzylaminopurine riboside, reference compound] = 154.1%
OC[C@H]1O[C@@H](n2cnc3c(NCc4ccc(Cl)c(Cl)c4)ncnc32)[C@H](O)[C@@H]1O = 114.2%

Please find the next compound below.
Prompt: Param item = OC[C@H]1O[C@@H](n2cnc3c(NCc4cccc(Cl)c4)ncnc32)[C@H](O)[C@@H]1O [3-chlorobenzylamino, 6-(3-chlorobenzylamino)purine riboside] ; retrieve measured GK % (glutamate kinase activity).
Completion: 124.7%

----------
Test system: HOS
assay text: In vitro cytotoxic activity, Calcein AM assay, HOS
Type: cell-based
stated conditions: 72 hours
pIC50: −log10 of the molar value.
Each entry below carries its recorded pIC50.

OC[C@H]1O[C@@H](n2cnc3c(NCc4cccc(F)c4)nc(Cl)nc32)[C@H](O)[C@@H]1O = < 3.78
OC[C@H]1O[C@@H](n2cnc3c(NCc4cccc(Cl)c4)ncnc32)[C@H](O)[C@@H]1O [3-chlorobenzylamino, 6-(3-chlorobenzylamino)purine riboside] = < 3.78
COc1cccc(CNc2ncnc3c2ncn3[C@@H]2O[C@H](CO)[C@@H](O)[C@H]2O)c1OC = < 3.78
OC[C@H]1O[C@@H](n2cnc3c(NCc4cccc(O)c4)nc(Cl)nc32)[C@H](O)[C@@H]1O [R2 = Cl, 3-hydroxybenzylamino] = < 3.78

Prompt: Param item = OC[C@H]1O[C@@H](n2cnc3c(NCc4ccc(O)cc4)nc(Cl)nc32)[C@H](O)[C@@H]1O [R2 = Cl, 4-hydroxybenzylamino] ; retrieve measured pIC50.
Completion: < 3.78

Prompt: Param item = `CSc1nc(NCc2cccc(F)c2)c2ncn([C@@H]3O[C@H](CO)[C@@H](O)[C@H]3O)c2n1` ; retrieve measured pIC50.
Completion: < 3.78

----------
Tested on: human erythroleukaemia K562
assay text: In vitro cytotoxic activity, Calcein AM assay, K-562
Format: cell-based
stated conditions: 72 hours, read-out: IC 50 K-562
Excerpt: One of the parameters used, as the basis for cytotoxicity assays, is the metabolic activity of viable cells. For example, a microtiter assay, which uses the Calcein AM, is now widely used to quantitate cell proliferation and cytotoxicity. For instance, this assay is used in drug screening programs and in chemosensitivity testing. […] The quantity of reduced Calcein AM corresponds to the number of vital cells in the culture. […]
Binarize IC50 at 40 µM; below is YES, at or above is NO.

OC[C@H]1O[C@@H](n2cnc3c(NCc4ccccc4O)ncnc32)[C@H](O)[C@@H]1O [2-hydroxybenzylamino, 6-(2-hydroxybenzylamino)purine riboside] = NO

Prompt: Please state whether IC50 is below 40 µM for OC[C@H]1O[C@@H](n2cnc3c(NCc4cccc(O)c4)ncnc32)[C@H](O)[C@@H]1O [3-hydroxybenzylamino, 6-(3-hydroxybenzylamino)purine riboside]
Completion: NO

Prompt: Please state whether IC50 is below 40 µM for COc1cccc(CNc2ncnc3c2ncn3[C@@H]2O[C@H](CO)[C@@H](O)[C@H]2O)c1OC [2,3-dimethoxybenzylamino]
Completion: NO

Prompt: Please state whether IC50 is below 40 µM for OC[C@H]1O[C@@H](n2cnc3c(NCc4cc(F)cc(F)c4)ncnc32)[C@H](O)[C@@H]1O [3,5-difluorobenzylamino]
Completion: NO

Prompt: Please state whether IC50 is below 40 µM for OC[C@H]1O[C@@H](n2cnc3c(NCc4ccc(F)cc4)ncnc32)[C@H](O)[C@@H]1O [4-fluorobenzylamino, 6-(4-fluorobenzylamino)purine riboside]
Completion: YES
